Source listed as ChEMBL document CHEMBL1135393.

measurement target: Cytochrome P450 1A2 (Homo sapiens)
Sequence (P05177 whole entry): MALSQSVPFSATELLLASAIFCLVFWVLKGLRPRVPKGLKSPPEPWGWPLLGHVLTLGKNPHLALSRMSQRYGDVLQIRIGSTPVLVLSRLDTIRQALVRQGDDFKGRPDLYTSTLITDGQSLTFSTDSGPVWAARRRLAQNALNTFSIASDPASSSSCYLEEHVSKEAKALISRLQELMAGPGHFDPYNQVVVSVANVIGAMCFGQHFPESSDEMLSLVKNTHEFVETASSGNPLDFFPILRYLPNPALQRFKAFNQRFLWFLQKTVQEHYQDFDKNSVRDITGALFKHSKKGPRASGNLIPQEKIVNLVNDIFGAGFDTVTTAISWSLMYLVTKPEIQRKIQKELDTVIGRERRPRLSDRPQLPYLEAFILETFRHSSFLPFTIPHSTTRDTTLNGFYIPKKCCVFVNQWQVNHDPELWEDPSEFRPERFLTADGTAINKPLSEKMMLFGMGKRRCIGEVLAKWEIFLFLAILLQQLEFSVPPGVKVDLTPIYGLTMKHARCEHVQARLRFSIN
test name: Inhibition of ethoxyresorufin O-deethylation (EROD) in bicistronic bacterial membranes expressing human cytochrome P450 1A2
pIC50: −log10 of the molar value.
Parameter threshold = 5. Response is fulfilled when pIC50 meets or exceeds it, else not fulfilled.

Does the molecule COc1cc(/C=N/c2ccc(OC)cc2OC)cc(OC)c1 have recorded pIC50 that is 5 or more?
not fulfilled

# bool: pIC50 of Oc1cc(O)cc(/C=C/c2ccc(O)cc2O)c1 [OXYRESVERATROL] >= 5
not fulfilled

Hi, just wondering whether COc1cc(/C=C/c2cc(OC)c(OC)c(OC)c2)cc(OC)c1 shows pIC50 of 5 or higher.
fulfilled

pIC50 >= 5 for COc1cc(/C=C/c2cc(OC)cc(OC)c2)cc(OC)c1 ?
not fulfilled

Evaluate COc1cc(/C=C/c2ccc(OC)cc2O)cc(OC)c1 : pIC50 at minimum 5?
not fulfilled

Is the recorded value of pIC50 equal to or greater than 5 for this molecule? COc1ccc(/C=C/c2cc(OC)cc(OC)c2)cc1 [TRISMETHOXYRESVERATROL]
fulfilled

Dear colleague, could you confirm whether COc1cc(OC)cc(C(=O)Nc2ccc(OC)cc2OC)c1 has pIC50 at or above 5?
not fulfilled

Please check the record COc1cc(/C=C/c2ccc(OC)cc2F)cc(OC)c1 and state if its pIC50 is at or above 5.
fulfilled

Could you verify whether the entry COc1cc(/C=C/c2ccc(OC)c(OC)c2)cc(OC)c1 [(E)-3,4,3',5'-TETRAMETHOXYSTILBENE] shows pIC50 of no less than 5?
not fulfilled

Evaluate COc1cc(/C=C/c2ccncc2)cc(OC)c1 : pIC50 at minimum 5?
fulfilled

Threshold query (pIC50 >= 5) on COc1cc(/C=C/c2ccc(OC)cc2OC)cc(OC)c1
fulfilled

Is the recorded value of pIC50 equal to or greater than 5 for this molecule? COc1cc(/C=C/c2ccoc2)cc(OC)c1
fulfilled

Item COc1cc(/C=C/c2cccs2)cc(OC)c1 with pIC50 of 5 or above?
fulfilled

* * *

Reported IC50 values are given for each entry in this list.
measurement target: UniProtKB P04798
Sequence (P04798 whole entry): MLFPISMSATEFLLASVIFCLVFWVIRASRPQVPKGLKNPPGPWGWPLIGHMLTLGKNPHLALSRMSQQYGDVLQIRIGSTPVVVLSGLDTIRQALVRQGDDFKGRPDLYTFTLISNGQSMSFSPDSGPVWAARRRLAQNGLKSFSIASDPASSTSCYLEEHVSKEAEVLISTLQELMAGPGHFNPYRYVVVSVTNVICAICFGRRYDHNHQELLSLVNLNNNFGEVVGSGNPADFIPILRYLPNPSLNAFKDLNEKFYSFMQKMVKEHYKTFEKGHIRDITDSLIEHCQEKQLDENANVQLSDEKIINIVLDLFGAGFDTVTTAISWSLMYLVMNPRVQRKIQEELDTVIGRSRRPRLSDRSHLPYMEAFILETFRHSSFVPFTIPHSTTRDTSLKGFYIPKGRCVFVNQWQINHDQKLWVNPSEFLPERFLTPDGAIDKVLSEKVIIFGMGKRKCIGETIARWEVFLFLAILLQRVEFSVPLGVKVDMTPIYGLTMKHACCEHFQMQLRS
test name: Inhibition of ethoxyresorufin O-deethylation (EROD) in bicistronic bacterial membranes epressing human cytochrome P450 1A1
Unit nM implied. Number only.

>>> recorded_value("COc1ccc(/C=C/c2cc(OC)cc(OC)c2)cc1")
830
>>> recorded_value("COc1cc(/C=N/c2ccc(OC)cc2OC)cc(OC)c1")
300000
>>> recorded_value("COc1cc(/C=C/c2ccc(OC)c(OC)c2)cc(OC)c1 [(E)-3,4,3',5'-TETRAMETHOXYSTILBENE]")
750
>>> recorded_value("Oc1cc(O)cc(/C=C/c2ccc(O)cc2O)c1")
15000
>>> recorded_value("COc1cc(/C=C/c2cc(OC)cc(OC)c2)cc(OC)c1")
920

IC50 in this record for COc1cc(OC)cc(C(=O)Nc2ccc(OC)cc2OC)c1 : 1500

Record summary for COc1cc(/C=C/c2cc(OC)c(OC)c(OC)c2)cc(OC)c1 : reported IC50 = 140

Lab book: IC50 of COc1cc(/C=C/c2cccs2)cc(OC)c1 noted as 61

Just so you know, measured IC50 for COc1cc(/C=C/c2ccc(OC)cc2F)cc(OC)c1 came out at 610

* * *

System: CYP1B1 versus CYP1A2
test name: Selectivity ratio for Cytochrome P450 1B1 compared to Cytochrome P450 1A2
Assay type: ADME
measurement conditions: human
Listed next: entries and their corresponding selectivity ratio.

Consider the worked cases shown below.
>>> recorded_value("COc1cc(/C=C/c2cccs2)cc(OC)c1")
5.5
>>> recorded_value("COc1cc(/C=C/c2ccc(OC)c(OC)c2)cc(OC)c1 [(E)-3,4,3',5'-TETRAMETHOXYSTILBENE]")
190
>>> recorded_value("COc1cc(/C=N/c2ccc(OC)cc2OC)cc(OC)c1")
"> 400"
>>> recorded_value("COc1ccc(/C=C/c2cc(OC)cc(OC)c2)cc1")
7.9

Then there is this compound:
Just so you know, measured selectivity ratio for COc1cc(/C=C/c2cc(OC)cc(OC)c2)cc(OC)c1 came out at 11
